Biological target: human Bace2 protein (Homo sapiens)
Construct: V5 (C); 6-His (C)
Sequence (Q9Y5Z0 63-518): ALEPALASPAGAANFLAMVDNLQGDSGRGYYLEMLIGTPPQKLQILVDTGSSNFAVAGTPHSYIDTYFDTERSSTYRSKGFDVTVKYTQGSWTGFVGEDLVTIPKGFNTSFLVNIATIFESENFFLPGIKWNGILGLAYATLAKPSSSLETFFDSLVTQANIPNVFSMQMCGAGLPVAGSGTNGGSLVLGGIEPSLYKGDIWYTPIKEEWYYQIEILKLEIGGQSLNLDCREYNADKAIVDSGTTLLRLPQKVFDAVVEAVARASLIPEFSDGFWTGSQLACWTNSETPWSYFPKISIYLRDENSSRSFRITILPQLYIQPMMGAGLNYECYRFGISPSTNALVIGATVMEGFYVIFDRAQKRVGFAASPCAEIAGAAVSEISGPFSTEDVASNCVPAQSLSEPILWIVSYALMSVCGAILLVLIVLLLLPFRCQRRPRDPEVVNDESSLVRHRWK
Assay: In vitro enzymatic BACE2 FRET assay
Type: biochemical
Conditions: average IC50; read-out: BACE2 Enzyme assay IC50
Entries and their IC50 values follow.
Give the value, in units of nM, as a plain number.

Here's what some known entries look like.
| molecule | IC50, nM |
| --- | --- |
| C[C@]1(c2cc(Nc3nccc4cc(Cl)cnc34)ccc2F)N=C(N)[C@@]2(CF)CC[C@@H]1S2(=O)=O [Example 58] | 2 |
| COc1cnc2c(Nc3ccc(F)c([C@@]4(C)N=C(N)[C@@]5(C)CC[C@@H]4S5(=O)=O)c3)ncnc2c1 [Example 132] | 51 |
| CC#C[C@H](C)Oc1cnc(C(=O)Nc2ccc(F)c([C@@]3(C)N=C(N)[C@@]4(C)CC[C@@H]3S4(=O)=O)c2)cn1 [Example 71] | 8 |
| CC#C[C@@H](C)Oc1cnc(C(=O)Nc2ccc(F)c([C@@]3(C)N=C(N)[C@@]4(C)CC[C@@H]3S4(=O)=O)c2)cn1 [Example 70] | 50 |
| C#CC(C)(C)Oc1cnc(C(=O)Nc2ccc(F)c([C@@]3(C)N=C(N)[C@@]4(CF)CC[C@@H]3S4(=O)=O)c2)cn1 [Example 44] | 283 |

Recorded IC50 for C[C@]1(c2cc(Nc3nccc4cc(C#N)cnc34)ccc2F)N=C(N)[C@@]2(C)CC[C@@H]1S2(=O)=O [Example 84] , please?
2

Recorded IC50 for C[C@]1(c2cc(Nc3nccc4nc(OCc5ncco5)cnc34)ccc2F)N=C(N)[C@@]2(C)CC[C@@H]1S2(=O)=O [Example 140] , please?
20

----------
Entries and their pIC50 values follow.
Molecular target: BACE1 (Homo sapiens)
Experiment: In vitro enzymatic BACE FRET assay
Type: biochemical
Settings: read-out: BACE1 FRET assay IC50
Protocol: In Vitro Enzymatic BACE FRET (Fluorescence Resonance Energy Transfer) Assay Enzyme Assay Data in the Example Table I The assay buffer used in this screen is 0.05 M acetate, pH 4.2, 10% DMSO final, 100 uM genapol (which is a nonionic detergent, below its Critical Micelle Concentration). […] The FRET assay is terminated with by addition of Tris buffer, which raises the pH to neutrality, and the fluorescence is determined. […]
Hey, just a heads up that pIC50 is the negative log base 10 of the concentration in molar.

Here's what some known entries look like.
| structureAsSmiles | systemUnderTest | assayResult |
| --- | --- | --- |
| Cc1cc(Cl)cnc1C(=O)Nc1ccc(F)c([C@@]2(C)N=C(N)[C@]3(C)CC[C@H]2S3(=O)=O)c1 | BACE1 (Homo sapiens) | 8.10 |
| Cc1cc(Cl)cnc1C(=O)Nc1ccc(F)c([C@@]2(C)N=C(N)[C@@H]3CCC[C@H]2S3(=O)=O)c1 | BACE1 (Homo sapiens) | 7.82 |
| Cc1cc(OC(F)F)cnc1C(=O)Nc1ccc(F)c([C@@]2(C)N=C(N)[C@@]3(C)CCC[C@]2(C)S3(=O)=O)c1 | BACE1 (Homo sapiens) | 7.89 |

Field: next compound
Recorded pIC50 for Cc1cc(OC(F)F)cnc1C(=O)Nc1ccc(F)c([C@@]2(C)N=C(N)[C@]3(C)CCC[C@H]2S3(=O)=O)c1 , please?
8.00

----------
Entries and their pIC50 values follow.
Molecular target: BACE1 (Homo sapiens, UniProt P56817)
Sequence (P56817 46-501, species assumed): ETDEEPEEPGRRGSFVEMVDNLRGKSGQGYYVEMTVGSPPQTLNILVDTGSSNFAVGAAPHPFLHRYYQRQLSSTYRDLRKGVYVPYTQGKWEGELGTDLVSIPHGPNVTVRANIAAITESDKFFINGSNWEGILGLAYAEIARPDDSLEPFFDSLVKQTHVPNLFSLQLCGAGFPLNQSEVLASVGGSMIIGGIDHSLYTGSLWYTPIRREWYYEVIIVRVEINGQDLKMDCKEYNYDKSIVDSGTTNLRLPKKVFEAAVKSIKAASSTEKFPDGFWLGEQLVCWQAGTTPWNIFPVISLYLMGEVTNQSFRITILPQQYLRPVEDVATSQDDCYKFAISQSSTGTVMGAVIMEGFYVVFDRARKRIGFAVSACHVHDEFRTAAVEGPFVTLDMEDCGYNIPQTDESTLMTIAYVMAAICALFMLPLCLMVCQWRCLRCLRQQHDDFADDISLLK
Experiment: In vitro enzymatic BACE FRET assay
Format: biochemical
Conditions: average IC50; read-out: BACE1 Enzyme assay IC50
Hey, just a heads up that pIC50 is the negative log base 10 of the concentration in molar.

| structureAsSmiles | pIC50 |
| --- | --- |
| C[C@]1(c2cc(Nc3nccc4cc(C#N)cnc34)ccc2F)N=C(N)[C@@]2(CF)CC[C@@H]1S2(=O)=O | 9.00 |

Recorded pIC50 for Cc1cc(C(F)(F)F)cnc1C(=O)Nc1ccc(F)c([C@@]2(C)N=C(N)[C@@]3(CF)CC[C@@H]2S3(=O)=O)c1 , please?
8.40

Recorded pIC50 for Cc1cc(C(F)(F)F)cnc1C(=O)Nc1ccc(F)c([C@@]2(C)N=C(N)[C@]3(CF)CC[C@H]2S3(=O)=O)c1 , please?
7.40

----------
Target: Cathepsin D (Cat D) (Homo sapiens)
Construct: made in house; host or cells: CHO cells
Sequence (P07339 65-412, species assumed): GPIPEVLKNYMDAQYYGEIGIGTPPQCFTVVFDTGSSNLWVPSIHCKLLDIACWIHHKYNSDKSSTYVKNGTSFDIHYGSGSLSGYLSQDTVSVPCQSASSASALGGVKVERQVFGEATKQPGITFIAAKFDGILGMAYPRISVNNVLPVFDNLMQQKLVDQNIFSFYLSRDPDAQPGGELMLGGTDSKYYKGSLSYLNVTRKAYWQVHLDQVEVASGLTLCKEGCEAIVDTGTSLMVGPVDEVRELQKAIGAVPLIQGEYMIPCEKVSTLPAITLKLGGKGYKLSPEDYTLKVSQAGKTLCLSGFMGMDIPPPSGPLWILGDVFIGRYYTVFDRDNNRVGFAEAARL
Test: In vitro enzymatic Cathepsin D (Cat D) FRET assay
Type: biochemical
Settings: average IC50; first procedure; read-out: CatD IC50
Entries and their IC50 values follow.

Here's what some known entries look like.
| molecule | IC50 |
| --- | --- |
| Cc1cc(Cl)cnc1C(=O)Nc1ccc(F)c([C@@]2(CF)N=C(N)[C@]3(C)CC[C@H]2S3(=O)=O)c1 | > 400 µM |
| C[C@]1(c2cc(Nc3nccc4nc(C(F)(F)F)cnc34)ccc2F)N=C(N)[C@@]2(CF)CC[C@@H]1S2(=O)=O | > 133 µM |
| COc1cnc2c(Nc3ccc(F)c([C@@]4(C)N=C(N)[C@@]5(CF)CC[C@@H]4S5(=O)=O)c3)nccc2c1 | > 400 µM |

Field: next molecule
Recorded IC50 for Cc1cc(Cl)cnc1C(=O)Nc1ccc(F)c([C@@]2(CF)N=C(N)[C@@]3(C)CC[C@@H]2S3(=O)=O)c1 (single isomer, unassigned) , please?
> 400 µM

----------
Target: Cathepsin D (Cat D) (Homo sapiens)
Construct: made in house; host or cells: CHO cells
Assay: In vitro enzymatic Cathepsin D (Cat D) FRET assay
Type: biochemical
Details: average IC50; first procedure; read-out: CatD IC50
pIC50: −log10 of the molar value.
property: pIC50

| compound | property | assayResult |
| --- | --- | --- |
| COc1cnc2c(Nc3ccc(F)c([C@@]4(C)N=C(N)[C@@]5(C)CC[C@@H]4S5(=O)=O)c3)nccc2n1 [Example 80] | pIC50 | < 3.40 |
| C[C@]12CC[C@H]([C@@](C)(c3cc(NC(=O)c4ccc(C#CC5CC5)cn4)ccc3F)N=C1N)S2(=O)=O [Example 65] | pIC50 | < 3.40 |
| COc1cnc(C(=O)Nc2ccc(F)c([C@@]3(CF)N=C(N)[C@@]4(C)CC[C@@H]3S4(=O)=O)c2)cn1 (single isomer, unassigned) [Example 120] | pIC50 | < 3.40 |
| COc1cnc2c(Nc3ccc(F)c([C@@]4(C)N=C(N)[C@]5(C)CC[C@H]4S5(=O)=O)c3)nccc2n1 [Example 81] | pIC50 | < 3.46 |
| C[C@]1(c2cc(Nc3ncc(F)c4cc(C#N)cnc34)ccc2F)N=C(N)[C@@]2(CF)CC[C@@H]1S2(=O)=O [Example 53] | pIC50 | < 4.83 |

Recorded pIC50 for COc1cnc(C(=O)Nc2ccc(F)c([C@@]3(C)N=C(N)[C@]4(C)CC[C@H]3S4(=O)=O)c2)cn1 [Example 66] , please?
< 3.40

Recorded pIC50 for C[C@]1(c2cc(NC(=O)c3ccc(C(F)(F)F)cc3F)ccc2F)N=C(N)[C@@]2(C)CC[C@@H]1S2(=O)=O [Example 121] , please?
< 3.40

Recorded pIC50 for Cc1nc(OCC(F)(F)F)cnc1C(=O)Nc1ccc(F)c([C@@]2(C)N=C(N)[C@@]3(CF)CC[C@@H]2S3(=O)=O)c1 [Example 57] , please?
< 3.40

Recorded pIC50 for C[C@]1(c2cc(Nc3nccc4nc(OCC5CC5)cnc34)ccc2F)N=C(N)[C@@]2(C)CC[C@@H]1S2(=O)=O [Example 68] , please?
< 3.40

Recorded pIC50 for CC#CCOc1ccc(C(=O)Nc2ccc(F)c([C@@]3(C)N=C(N)[C@@]4(C)CC[C@@H]3S4(=O)=O)c2)c(F)c1 [Example 138] , please?
< 3.40

----------
Test system: Aβ40 in conditioned medium of cells stably expressing Amyloid Precursor Protein (APP)
Test: In vitro BACE cell-based assay (HEK cell assay, Aβ40 sandwich ELISA)
Details: Homo sapiens, HEK293; average IC50; read-out: BACE1 cell assay IC50
property: pIC50
Hey, just a heads up that pIC50 is the negative log base 10 of the concentration in molar.

Here's what some known entries look like.
| molecule | systemUnderTest | property | assayResult |
| --- | --- | --- | --- |
| COc1cnc(C(=O)Nc2ccc(F)c([C@@]3(C)N=C(N)[C@@]4(CF)CC[C@@H]3S4(=O)=O)c2)c(F)c1 [Example 43] | Aβ40 in conditioned medium of cells stably expressing Amyloid Precursor Protein (APP) | pIC50 | 8.15 |
| C[C@]1(c2cc(Nc3ncnc4cc(C(F)(F)F)cnc34)ccc2F)N=C(N)[C@@]2(CF)CC[C@@H]1S2(=O)=O [Example 107] | Aβ40 in conditioned medium of cells stably expressing Amyloid Precursor Protein (APP) | pIC50 | 7.74 |
| C[C@]1(c2cc(Nc3nccc4nc(OCc5ncco5)cnc34)ccc2F)N=C(N)[C@@]2(CF)CC[C@@H]1S2(=O)=O [Example 104] | Aβ40 in conditioned medium of cells stably expressing Amyloid Precursor Protein (APP) | pIC50 | 9.05 |
| C[C@]1(c2cc(Nc3nccc4nc(OCC(F)(F)F)cnc34)ccc2F)N=C(N)[C@@]2(CF)CC[C@@H]1S2(=O)=O [Example 112] | Aβ40 in conditioned medium of cells stably expressing Amyloid Precursor Protein (APP) | pIC50 | 6.73 |
| Cc1cc(C(F)(F)F)cnc1C(=O)Nc1ccc(F)c([C@@]2(C)N=C(N)[C@@]3(CF)CC[C@@H]2S3(=O)=O)c1 [Example 92] | Aβ40 in conditioned medium of cells stably expressing Amyloid Precursor Protein (APP) | pIC50 | 8.30 |
| C[C@]1(c2cc(NC(=O)c3ccc(C(F)(F)F)cn3)ccc2F)N=C(N)[C@@]2(CF)CC[C@@H]1S2(=O)=O [Example 110] | Aβ40 in conditioned medium of cells stably expressing Amyloid Precursor Protein (APP) | pIC50 | 8.30 |
| C[C@]1(c2cc(NC(=O)c3ncc(C(F)(F)F)cc3Cl)ccc2F)N=C(N)[C@@]2(CF)CC[C@@H]1S2(=O)=O [Example 108] | Aβ40 in conditioned medium of cells stably expressing Amyloid Precursor Protein (APP) | pIC50 | 8.15 |
| C[C@]1(c2cc(NC(=O)c3ccc(C#N)cn3)ccc2F)N=C(N)[C@@]2(CF)CC[C@@H]1S2(=O)=O [Example 111] | Aβ40 in conditioned medium of cells stably expressing Amyloid Precursor Protein (APP) | pIC50 | 8.40 |

Recorded pIC50 for CC#CCOc1cnc(C(=O)Nc2ccc(F)c([C@@]3(C)N=C(N)[C@]4(C)CC[C@H]3S4(=O)=O)c2)cn1 [Example 83] , please?
9.30
